Value source: patent US20180148418A1

# TEST TARGET: TNKS1 (Homo sapiens, UniProt O95271)
# Sequence (O95271 1-1327): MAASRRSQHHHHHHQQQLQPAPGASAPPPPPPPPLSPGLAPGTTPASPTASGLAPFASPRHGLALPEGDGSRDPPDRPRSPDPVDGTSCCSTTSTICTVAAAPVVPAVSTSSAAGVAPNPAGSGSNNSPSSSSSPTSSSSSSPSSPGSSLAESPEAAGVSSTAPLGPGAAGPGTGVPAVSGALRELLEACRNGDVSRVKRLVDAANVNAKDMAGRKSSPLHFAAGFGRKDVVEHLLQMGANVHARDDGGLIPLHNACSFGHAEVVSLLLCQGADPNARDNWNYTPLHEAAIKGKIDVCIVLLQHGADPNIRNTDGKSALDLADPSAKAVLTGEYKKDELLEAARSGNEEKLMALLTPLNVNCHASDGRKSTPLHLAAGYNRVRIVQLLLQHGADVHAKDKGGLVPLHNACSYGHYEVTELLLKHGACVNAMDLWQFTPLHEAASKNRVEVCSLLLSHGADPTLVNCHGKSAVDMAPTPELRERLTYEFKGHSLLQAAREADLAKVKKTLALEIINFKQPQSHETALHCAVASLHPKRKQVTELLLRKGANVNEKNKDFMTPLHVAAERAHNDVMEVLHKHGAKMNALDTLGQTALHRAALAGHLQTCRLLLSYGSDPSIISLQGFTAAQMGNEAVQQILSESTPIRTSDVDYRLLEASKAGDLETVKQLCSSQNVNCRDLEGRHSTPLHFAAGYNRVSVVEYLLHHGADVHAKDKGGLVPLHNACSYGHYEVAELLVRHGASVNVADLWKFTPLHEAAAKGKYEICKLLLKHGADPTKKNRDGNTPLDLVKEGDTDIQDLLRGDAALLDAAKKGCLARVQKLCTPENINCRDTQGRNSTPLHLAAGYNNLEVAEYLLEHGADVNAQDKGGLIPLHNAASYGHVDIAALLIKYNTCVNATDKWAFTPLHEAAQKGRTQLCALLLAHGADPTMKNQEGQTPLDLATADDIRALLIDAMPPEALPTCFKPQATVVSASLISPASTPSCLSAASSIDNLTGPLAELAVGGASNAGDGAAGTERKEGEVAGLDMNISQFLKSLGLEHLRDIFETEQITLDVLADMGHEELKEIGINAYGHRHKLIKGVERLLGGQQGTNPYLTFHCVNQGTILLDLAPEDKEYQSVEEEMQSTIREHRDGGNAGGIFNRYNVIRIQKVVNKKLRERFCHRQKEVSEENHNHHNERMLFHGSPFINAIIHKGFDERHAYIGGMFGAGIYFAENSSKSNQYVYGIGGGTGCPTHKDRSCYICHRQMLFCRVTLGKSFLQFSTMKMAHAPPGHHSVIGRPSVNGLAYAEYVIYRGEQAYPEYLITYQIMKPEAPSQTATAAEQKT
REPORTED ENDPOINT: IC50 (nM)
Answer with a number only, understood to be in nM.

Here is how some molecules turned out for IC50.
> print(dat)
                               smiles.input  data.value
1  CCNC(=O)c1nc[nH]c1C(=O)N[C@H]1CC[C@H](C(=O)Nc2ccc(F)cc2Cl)CC1          52
2  Cc1cc(C)n2ncc(C(=O)N[C@H]3CC[C@@]4(CCN(c5ccc(F)cc5)C4=O)CC3)c2n1         430
3  CNC(=O)c1nc[nH]c1C(=O)N[C@H]1CC[C@H](C(=O)Nc2ncncc2Cl)CC1         150
4  O=C(N[C@H]1CC[C@H](C(=O)Nc2cnc(C(F)(F)F)cc2Cl)CC1)c1cnn2cccnc12         290
5  Cc1cc(NC(=O)[C@H]2CC[C@H](NC(=O)c3[nH]cnc3C(=O)NCC(C)(C)O)CC2)c(Cl)cc1F         180

Okay, next one:
Find the recorded IC50 belonging to "CNC(=O)c1nc[nH]c1C(=O)N[C@H]1CC[C@H](C(=O)Nc2cc(C)c(F)cc2Cl)CC1" and report it.
57
